# protocol.notes: Plasma stability
# Assay type: in vitro ADME
# Set-up: unit not given here
# condition.set: 37° C., 2 μM substrate
metric: STA Human Plasma 37

| sample.smiles | result.value |
| --- | --- |
| CC(C)C(C)(C)OC(=O)OC[C@H]1O[C@@](C#N)(c2ccc3c(N)ncnn23)[C@H](O)[C@@H]1O | 266.43 |
| COCCOC(=O)OC[C@H]1O[C@@](C#N)(c2ccc3c(N)ncnn23)[C@H](O)[C@@H]1O | 43.569 |
| COC(=O)OC[C@H]1O[C@@](C#N)(c2ccc3c(N)ncnn23)[C@H](O)[C@@H]1O | 1388.9 |
| CC(C)(OC(=O)OC[C@H]1O[C@@](C#N)(c2ccc3c(N)ncnn23)[C@H](O)[C@@H]1O)c1cccnc1 | 173.49 |
| N#C[C@@]1(c2ccc3c(N)ncnn23)O[C@H](COC(=O)OC2CCC2)[C@@H](O)[C@H]1O | 53 |
| CC(=O)O[C@H]1[C@@H](OC(C)=O)[C@](C#N)(c2ccc3c(N)ncnn23)O[C@@H]1COC(=O)OC(C)C | 14.9 |
| CCOC(=O)OC[C@H]1O[C@@](C#N)(c2ccc3c(N)ncnn23)[C@H](OC(=O)OCC)[C@@H]1OC(=O)OCC | 30.917 |
| C=CCCOC(=O)O[C@H]1[C@@H](OC(=O)OCCC=C)[C@](C#N)(c2ccc3c(N)ncnn23)O[C@@H]1COC(=O)OC(C)C | 463.08 |
| N#C[C@@]1(c2ccc3c(N)ncnn23)O[C@H](COC(=O)OCC23CC(C2)C3)[C@@H](O)[C@H]1O | 31.1 |
| CC(C)OC(=O)OC[C@H]1O[C@@](C#N)(c2ccc3c(N)ncnn23)[C@H](OC(=O)OC(C)C)[C@@H]1OC(=O)OC(C)C | 195.87 |
| CCCCCCCCCCCCCCCCCCOC(=O)OC[C@H]1O[C@@](C#N)(c2ccc3c(N)ncnn23)[C@H](O)[C@@H]1O | 79.1 |
| CCOC(=O)[C@H](C)OC(=O)OC[C@H]1O[C@@](C#N)(c2ccc3c(N)ncnn23)[C@H](O)[C@@H]1O | 6.669 |
| CCOC(=O)OC[C@H]1O[C@@](C#N)(c2ccc3c(N)ncnn23)[C@H](O)[C@@H]1O | 55.852 |
| C=CCOC(=O)OC[C@H]1O[C@@](C#N)(c2ccc3c(N)ncnn23)[C@H](O)[C@@H]1O | 3 |
| CC1(OC(=O)OC[C@H]2O[C@@](C#N)(c3ccc4c(N)ncnn34)[C@H](O)[C@@H]2O)CCCCC1 | 1584 |

* * *

# protocol.notes: CC50 MT4 cytotoxicity (Cell-Titer Glo)
# Assay type: cell-based
# condition.set: human
Reported CC50 values for the following molecules.
metric: CC50

| molecule | result.value |
| --- | --- |
| CC(C)OC(=O)OC[C@H]1O[C@@](C#N)(c2ccc3c(NC(=O)C(C)C)ncnn23)[C@H](OC(=O)C(C)C)[C@@H]1OC(=O)C(C)C [Compound 75] | > 50 µM |
| CC1(OC(=O)OC[C@H]2O[C@@](C#N)(c3ccc4c(N)ncnn34)[C@H](O)[C@@H]2O)CCCCCCC1 [Compound 57] | > 50 µM |
| CC(C)(C)COC(=O)OC[C@H]1O[C@@](C#N)(c2ccc3c(=N)n(COP(=O)(O)O)cnn23)[C@H](O)[C@@H]1O [Compound 19] | > 50 µM |
| N#CC1(COC(=O)OC[C@H]2O[C@@](C#N)(c3ccc4c(N)ncnn34)[C@H](O)[C@@H]2O)CC1 [Compound 118] | > 50 µM |
| CCC(C)(CC)OC(=O)OC[C@H]1O[C@@](C#N)(c2ccc3c(N)ncnn23)[C@H](O)[C@@H]1O [Compound 69] | > 50 µM |
| N#C[C@@]1(c2ccc3c(N)ncnn23)O[C@H](COC(=O)OC23CC(C(F)(F)F)(C2)C3)[C@@H](O)[C@H]1O [Compound 139] | > 50 µM |

Reference for the values: patent US12448383B2
